target or test system: CD276, Q5ZPR3
Sequence (Q5ZPR3 whole entry): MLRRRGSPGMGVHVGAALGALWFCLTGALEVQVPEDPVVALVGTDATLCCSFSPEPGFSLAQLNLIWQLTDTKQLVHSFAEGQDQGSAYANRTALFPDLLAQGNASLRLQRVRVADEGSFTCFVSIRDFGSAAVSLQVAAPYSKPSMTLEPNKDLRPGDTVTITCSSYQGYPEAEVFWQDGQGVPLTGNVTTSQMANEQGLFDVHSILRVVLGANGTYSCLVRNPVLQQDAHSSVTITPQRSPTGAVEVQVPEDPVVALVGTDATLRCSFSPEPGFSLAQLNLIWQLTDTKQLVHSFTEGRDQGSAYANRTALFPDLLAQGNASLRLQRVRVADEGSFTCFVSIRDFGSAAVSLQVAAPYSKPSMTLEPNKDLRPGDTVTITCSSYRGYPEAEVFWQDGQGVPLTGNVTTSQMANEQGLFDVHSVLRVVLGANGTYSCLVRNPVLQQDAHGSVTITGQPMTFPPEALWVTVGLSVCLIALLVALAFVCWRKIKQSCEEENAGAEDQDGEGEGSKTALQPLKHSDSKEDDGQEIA
# valid calls are active, inactive; nothing else

binder	assigned category
design_612_bdadb936-3f14-48ad-830f-718e38d81c30_1410_dldesign_0_cycle1_af2pred (protein) MEEIRALAEEALATAEAELATMRAAQEAGDVGTAVDALRVLFRTANEAIRRLRELGGPEEYIERLEAARREAQAILAATARRAIAQA	active
design_618_d4ffd631-0ea2-432e-ba0f-bd3d6297b2a0_140_dldesign_0_cycle1_af2pred (protein) NEDLTKAGEKVVETQRTASEAARTSGDPAVAAEMNAIANAAIKALQAGVATGDYKTALETTEKLLKEAKAKLKEVK	inactive

In the following, a different binder is considered.
Req: For design_488_244881a1-ba0c-4c08-ad9c-1f64cf93580a_362_dldesign_0_cycle1_af2pred (protein) AEEERRRAALAERARAVLQQAAAVGSQAAIADPSVSGTILDGLKEAYELLARGEVERALEVAEALLASAQATLAAL , which call appears in the assay record?
Resp: inactive
